- Target Desc: TLR7 (Homo sapiens)
- Construct: Fresh blood was collected from normal human donors; endogenous in cells
- Sequence (Q9NYK1 27-1049): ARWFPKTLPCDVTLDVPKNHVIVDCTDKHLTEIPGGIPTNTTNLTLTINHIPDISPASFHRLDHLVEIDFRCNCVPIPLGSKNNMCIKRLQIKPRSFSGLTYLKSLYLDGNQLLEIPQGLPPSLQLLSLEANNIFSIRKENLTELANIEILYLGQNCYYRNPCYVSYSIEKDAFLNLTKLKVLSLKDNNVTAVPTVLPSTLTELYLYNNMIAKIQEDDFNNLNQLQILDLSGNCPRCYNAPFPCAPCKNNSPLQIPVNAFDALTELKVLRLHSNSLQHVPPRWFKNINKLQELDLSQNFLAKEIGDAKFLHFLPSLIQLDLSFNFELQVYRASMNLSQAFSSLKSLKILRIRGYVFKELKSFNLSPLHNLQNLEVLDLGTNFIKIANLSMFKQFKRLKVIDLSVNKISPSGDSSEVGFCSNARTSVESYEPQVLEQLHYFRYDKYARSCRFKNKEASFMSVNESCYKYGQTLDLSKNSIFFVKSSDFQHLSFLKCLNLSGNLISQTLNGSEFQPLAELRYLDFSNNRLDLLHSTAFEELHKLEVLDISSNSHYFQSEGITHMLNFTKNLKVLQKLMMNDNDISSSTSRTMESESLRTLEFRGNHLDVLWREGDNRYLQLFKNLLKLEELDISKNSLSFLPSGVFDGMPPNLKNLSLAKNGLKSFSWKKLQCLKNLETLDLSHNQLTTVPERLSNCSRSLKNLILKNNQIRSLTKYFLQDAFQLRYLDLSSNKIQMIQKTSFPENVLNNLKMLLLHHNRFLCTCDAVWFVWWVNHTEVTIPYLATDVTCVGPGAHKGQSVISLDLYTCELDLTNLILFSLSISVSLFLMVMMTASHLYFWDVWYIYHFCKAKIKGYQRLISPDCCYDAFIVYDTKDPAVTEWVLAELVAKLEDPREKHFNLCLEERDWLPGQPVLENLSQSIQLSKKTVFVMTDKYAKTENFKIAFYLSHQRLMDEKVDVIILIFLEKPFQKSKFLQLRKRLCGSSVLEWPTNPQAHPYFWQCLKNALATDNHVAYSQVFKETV
- Measurement Notes: huPBMC TLR7 Antagonist IFNα Assay
- Test Context: human PBMCs stimulated with ssRNA40 10 μg/mL (DOTAP), 14-16 hrs; IFNα2b AlphaLISA read-out
pIC50: −log10 of the molar value.
Readout Type: pIC50

Answered cases to consult:
[[record]]
query_smiles = "Cc1nn(CC23CCC(N)(CC2)CC3)c2c1CN(c1nc(N)nc3c1cnn3C)CC2"
val = 7.38

[[record]]
query_smiles = "[2H]C([2H])([2H])N(C([2H])([2H])[2H])C12CCC(Cn3nc(C)c4c3CCN(c3nc(C)nc5c(C)nn(C)c35)C4)(CC1)CC2"
val = 7.15

[[record]]
query_smiles = "CC(=O)NC12CCC(Cn3nc(C)c4c3CCN(c3cc(C)nc5c3cnn5C)C4)(CC1)CC2"
val = 8.40


(a) Cc1nn(CC23CCC(N4CCCC4)(CC2)CC3)c2c1CN(c1ccnc(-c3ccccc3)c1)CC2
(b) Cc1cc(N2CCc3c(c(C)nn3CC34CCC(N5C[C@H]6CC[C@@H](C5)O6)(CC3)CC4)C2)c2cnn(C)c2n1
# input Task for the reader: decide whether a or b has the larger pIC50. Please reply using the label of the selected record.
# output b

----------
- Target Desc: TLR8 (Homo sapiens, UniProt Q9NR97)
- Measurement Notes: huPBMC TLR8 Antagonist IL-6 TR-FRET Assay
- Type: cell-based
- Set-up: Fresh blood was collected from normal human donors; endogenous in cells; host or cells: human PBMCs from fresh donor blood
- Test Context: human PBMCs stimulated with ssRNA40 1 μg/ml (DOTAP), 14-16 hrs; IL-6 TR-FRET read-out
pIC50: −log10 of the molar value.
Readout Type: pIC50

[[record]]
compound = "[2H]C([2H])([2H])N(CC(=O)NC12CCC(Cn3nc(C)c4c3CCN(c3cc(C)nc5c3cnn5C)C4)(CC1)CC2)C([2H])([2H])[2H] [compound 134]"
readout_type = "pIC50"
val = 7.03


(P) Cc1nn(CC23CCC(N)(CC2)CC3)c2c1CN(c1ccnc3[nH]ncc13)CC2 [compound 41]
(Q) Cc1cc(N2CCc3c(c(C)nn3CC34CCC(N5CCN(C)C(=O)C5)(CC3)CC4)C2)c2cnn(C)c2n1 [Compound No. 104]
# input Looking only at measured pIC50, which entry is lower, P or Q ? Please reply using the label of the selected record.
# output P
(P: 5.34, Q: 6.41)

(I) Cc1nc(N2CCc3c(c(C)nn3CC34CCC(NC(=O)C5CNC5)(CC3)CC4)C2)c2c(n1)c(C)nn2C [compound 32]
(II) Cc1cc(N2CCc3c(c(C)nn3CCC34CCC(N)(CC3)CC4)C2)c2cnn(C)c2n1 [compound 91]
# input Task for the reader: decide whether I or II has the larger pIC50. Please reply using the label of the selected record.
# output I

----------
- Target Desc: TLR8 (Homo sapiens)
- Sequence (Q9NR97 27-1041): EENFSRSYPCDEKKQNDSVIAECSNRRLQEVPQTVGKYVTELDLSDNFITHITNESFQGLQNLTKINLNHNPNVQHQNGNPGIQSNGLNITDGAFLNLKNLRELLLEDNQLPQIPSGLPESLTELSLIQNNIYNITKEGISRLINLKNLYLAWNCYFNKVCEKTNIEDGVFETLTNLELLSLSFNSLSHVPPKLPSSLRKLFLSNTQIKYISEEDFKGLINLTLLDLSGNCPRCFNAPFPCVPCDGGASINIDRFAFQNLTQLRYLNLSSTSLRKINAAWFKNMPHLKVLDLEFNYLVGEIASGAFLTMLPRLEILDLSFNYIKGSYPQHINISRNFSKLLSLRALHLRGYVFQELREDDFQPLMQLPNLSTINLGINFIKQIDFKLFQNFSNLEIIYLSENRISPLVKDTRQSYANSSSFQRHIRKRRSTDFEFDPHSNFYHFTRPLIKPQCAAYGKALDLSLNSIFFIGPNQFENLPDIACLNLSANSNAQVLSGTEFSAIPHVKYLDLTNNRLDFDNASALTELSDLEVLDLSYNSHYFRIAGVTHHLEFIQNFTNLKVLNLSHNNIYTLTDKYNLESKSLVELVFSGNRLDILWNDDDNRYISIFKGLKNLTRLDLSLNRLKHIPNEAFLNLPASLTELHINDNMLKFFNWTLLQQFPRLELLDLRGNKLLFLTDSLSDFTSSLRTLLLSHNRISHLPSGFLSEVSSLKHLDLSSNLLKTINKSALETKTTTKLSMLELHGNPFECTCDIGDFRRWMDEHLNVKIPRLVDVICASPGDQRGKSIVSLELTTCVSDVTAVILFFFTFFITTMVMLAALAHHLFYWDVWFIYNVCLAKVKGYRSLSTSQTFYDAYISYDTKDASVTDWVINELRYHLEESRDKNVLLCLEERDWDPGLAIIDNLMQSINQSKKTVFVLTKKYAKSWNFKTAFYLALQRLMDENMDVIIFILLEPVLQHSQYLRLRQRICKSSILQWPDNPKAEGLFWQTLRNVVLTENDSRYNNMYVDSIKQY
- Measurement Notes: huPBMC TLR8 Antagonist IL-6 TR-FRET Assay
- Assay type: cell-based
- Parameters: Fresh blood was collected from normal human donors; endogenous in cells; host or cells: human PBMCs from fresh donor blood
- Test Context: human PBMCs stimulated with ssRNA40 1 μg/ml (DOTAP), 14-16 hrs; IL-6 TR-FRET read-out
Readout Type: IC50 (nM)

Answered cases to consult:
[[record]]
query_smiles = "[2H]C([2H])([2H])n1ncc2c(N3CCc4c(c(C)nn4CC45CCC(N)(CC4)CC5)C3)cc(C)nc21"
target_desc = "TLR8 (Homo sapiens)"
val = 331

[[record]]
query_smiles = "Cc1cc(N2CCc3c(c(C)nn3CC34CCC(N5C[C@H]6CC[C@@H](C5)O6)(CC3)CC4)C2)c2cnn(C)c2n1"
target_desc = "TLR8 (Homo sapiens)"
val = 20

[[record]]
query_smiles = "Cc1nc(N2CCc3c(c(C)nn3CC34CCC(N)(CC3)CC4)C2)c2cc[nH]c2n1"
target_desc = "TLR8 (Homo sapiens)"
val = 511

[[record]]
query_smiles = "CN[C@@H](C)C(=O)NC12CCC(Cn3nc(C)c4c3CCN(c3cc(C)nc5c3cnn5C)C4)(CC1)CC2"
target_desc = "TLR8 (Homo sapiens)"
val = 197

[[record]]
query_smiles = "Cc1cc(N2CCc3c(c(C)nn3CC34CCC(NCC(=O)N(C)C)(CC3)CC4)C2)c2cnn(C)c2n1"
target_desc = "TLR8 (Homo sapiens)"
val = 201


(P) Cc1nn(CC23CCC(N)(CC2)CC3)c2c1CN(c1nc(Cl)nc3c1COC3)CC2
(Q) CCNCC(=O)NC12CCC(Cn3nc(C)c4c3CCN(c3nc(C)nc5[nH]ncc35)C4)(CC1)CC2
# input Task for the reader: decide whether P or Q has the larger IC50. Please reply using the label of the selected record.
# output P
(P: 1420 nM, Q: 31 nM)

----------
- Target Desc: TLR9 (Homo sapiens)
- Construct: Fresh blood was collected from normal human donors; endogenous in cells
- Sequence (Q9NR96 26-1032): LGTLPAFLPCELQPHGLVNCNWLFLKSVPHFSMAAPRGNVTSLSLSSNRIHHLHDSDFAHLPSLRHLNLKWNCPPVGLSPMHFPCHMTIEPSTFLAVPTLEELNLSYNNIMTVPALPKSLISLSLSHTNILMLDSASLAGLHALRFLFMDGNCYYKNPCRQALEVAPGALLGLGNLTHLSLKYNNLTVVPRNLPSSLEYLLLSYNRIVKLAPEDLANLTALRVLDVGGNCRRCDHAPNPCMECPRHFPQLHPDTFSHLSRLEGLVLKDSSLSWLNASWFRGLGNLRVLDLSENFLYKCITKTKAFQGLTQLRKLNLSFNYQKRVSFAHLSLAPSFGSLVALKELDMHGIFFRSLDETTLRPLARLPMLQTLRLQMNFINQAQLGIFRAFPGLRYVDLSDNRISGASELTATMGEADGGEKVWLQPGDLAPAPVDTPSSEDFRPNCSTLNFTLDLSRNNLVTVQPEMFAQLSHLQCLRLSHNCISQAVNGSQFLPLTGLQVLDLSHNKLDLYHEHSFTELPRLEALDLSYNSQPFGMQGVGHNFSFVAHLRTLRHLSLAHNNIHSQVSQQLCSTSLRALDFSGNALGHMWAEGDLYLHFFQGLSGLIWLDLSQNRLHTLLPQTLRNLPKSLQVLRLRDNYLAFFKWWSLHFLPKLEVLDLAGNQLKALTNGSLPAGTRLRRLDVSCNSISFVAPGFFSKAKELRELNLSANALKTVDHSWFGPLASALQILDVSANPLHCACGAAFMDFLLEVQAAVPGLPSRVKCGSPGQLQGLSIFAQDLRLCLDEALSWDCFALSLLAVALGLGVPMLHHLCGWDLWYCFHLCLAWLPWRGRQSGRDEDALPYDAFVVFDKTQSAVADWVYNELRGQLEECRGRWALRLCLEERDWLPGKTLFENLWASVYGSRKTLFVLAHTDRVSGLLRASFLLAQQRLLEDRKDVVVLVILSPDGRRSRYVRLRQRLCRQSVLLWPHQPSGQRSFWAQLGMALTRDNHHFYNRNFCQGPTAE
- Measurement Notes: huPBMC TLR9 Antagonist IFNα Assay
- Test Context: human PBMCs stimulated with ODN2216 0.3 μM, 14-16 hrs; IFNα2b AlphaLISA read-out
pIC50: −log10 of the molar value.
Readout Type: pIC50

Answered cases to consult:
[[record]]
query_smiles = "COCCNC12CCC(Cn3nc(C)c4c3CCN(c3ccnc(-c5ccccc5)c3)C4)(CC1)CC2"
target_desc = "TLR9 (Homo sapiens)"
val = 6.17

[[record]]
query_smiles = "CCN(C)CC(=O)NC12CCC(Cn3nc(C)c4c3CCN(c3cc(C)nc5c3cnn5C)C4)(CC1)CC2"
target_desc = "TLR9 (Homo sapiens)"
val = 6.59

[[record]]
query_smiles = "CCNCC(=O)NC12CCC(Cn3nc(C)c4c3CCN(c3cc(C)nc5c3cnn5C)C4)(CC1)CC2"
target_desc = "TLR9 (Homo sapiens)"
val = 5.81

[[record]]
query_smiles = "Cc1cc(N2CCc3c(c(C)nn3CC34CCC(N5CCO[C@H](C)C5)(CC3)CC4)C2)c2cnn(C)c2n1"
target_desc = "TLR9 (Homo sapiens)"
val = 5.77

[[record]]
query_smiles = "Cc1cc(N2CCc3c(c(C)nn3CC34CCC(N5CCCC5)(CC3)CC4)C2)c2ccncc2n1"
target_desc = "TLR9 (Homo sapiens)"
val = 5.56

[[record]]
query_smiles = "Cc1cc(N2CCc3c(c(C)nn3CC34CCC(NC(=O)[C@@H]5COCCN5)(CC3)CC4)C2)c2cnn(C)c2n1"
target_desc = "TLR9 (Homo sapiens)"
val = 5.37


(a) Cc1cc(N2CCc3c(c(C)nn3CC34CCC(NCC(=O)N5CCCC5)(CC3)CC4)C2)c2cnn(C)c2n1
(b) Cc1cc(N2CCc3c(c(C)nn3CC34CCC(N)(CC3)CC4)C2)c2ccnc(C)c2n1
(c) Cc1cc(N2CCc3c(c(C)nn3CC34CCC(NC(=O)OC(C)(C)C)(CC3)CC4)C2)c2ccncc2n1
(d) Cc1cc(N2CCc3c(c(C)nn3CC34CCC(NC(=O)CCN(C)C)(CC3)CC4)C2)c2cnn(C)c2n1
# input Arrange these 4 compounds in increasing order of pIC50. Answer format: the labels, ordered as requested.
# output c, a, d, b
(c: 5.20, a: 5.57, d: 5.79, b: 7.03)
